target: UniProtKB Q9NR19; assay: biochemical
pIC50: −log10 of the molar value.
Value type: pIC50

Problem: Given the entry CCCCCc1cccc(NC(=O)C2C(=O)N(c3ccccc3)N=C2C)c1 (centres unmarked) , report its measured pIC50.
Solution: 4.00 to 6.00

Problem: Given the entry CC1=NN(c2ccc(B(O)O)cc2)C(=O)C1C(=O)Nc1cccc(C(C)(F)F)c1 (centres unmarked) , report its measured pIC50.
Solution: 8.22 to 11.00

Problem: Given the entry CC1=NN(c2ccc(OC(F)F)c(-c3nnc(C)[nH]3)c2)C(=O)C1C(=O)Nc1cccc(C(C)(F)F)c1 (centres unmarked) , report its measured pIC50.
Solution: 8.22 to 11.00

Problem: Given the entry CC1=NN(c2ccccc2)C(=O)C1C(=O)Nc1cccc(-c2ccccc2)c1 (centres unmarked) , report its measured pIC50.
Solution: 6.00 to 7.00

Problem: Given the entry CC1=NN(c2ccc(OC(F)F)c(-c3cnccn3)c2)C(=O)C1C(=O)Nc1cccc(C(C)(F)F)c1 (centres unmarked) , report its measured pIC50.
Solution: 8.22 to 11.00

Problem: Given the entry CC(=O)Cc1cccc(NC(=O)C2C(=O)N(c3ccccc3)N=C2C)c1 (centres unmarked) , report its measured pIC50.
Solution: 8.22 to 11.00

Problem: Given the entry CC1=NN(c2cc(C)cc(-c3ncco3)c2)C(=O)C1C(=O)Nc1cccc(C(C)(F)F)c1 (centres unmarked) , report its measured pIC50.
Solution: 8.22 to 11.00

Problem: Given the entry CCc1ccsc1NC(=O)C1C(=O)N(c2ccccc2)N=C1C (centres unmarked) , report its measured pIC50.
Solution: 6.00 to 7.00

---

target: ACSS2 (Homo sapiens); experiment: biochemical
pIC50: −log10 of the molar value.
Value type: pIC50

Answered cases to consult:
Compound: CCC(F)(F)c1cccc(NC(=O)C2C(=O)N(c3ccc4cc[nH]c4c3)N=C2C)c1 (stereo not shown) [compound 369]
Study target: ACSS2 (Homo sapiens)
pIC50: 8.22 to 11.00
//
Compound: CC(=O)NS(=O)(=O)c1cc(N2N=C(C)C(C(=O)Nc3cccc(-c4ccco4)c3)C2=O)ccc1OC(F)(F)F (stereo not shown) [compound 299]
Study target: ACSS2 (Homo sapiens)
pIC50: 7.00 to 8.22
//
Compound: CC(=O)c1ccc(NC(=O)C2C(=O)N(c3ccccc3)N=C2C)cc1 (stereo not shown) [compound 203]
Study target: ACSS2 (Homo sapiens)
pIC50: 4.00 to 6.00
//
Compound: CC1=NN(c2cccc(C(=O)OC(C)C)c2)C(=O)C1C(=O)Nc1cccc(-c2cnccn2)c1 (stereo not shown) [compound 234]
Study target: ACSS2 (Homo sapiens)
pIC50: 8.22 to 11.00
//
Compound: CC1=NN(c2cc(Cc3ccc(Cl)cc3)cc(-c3cccnc3)c2)C(=O)C1C(=O)Nc1cccc(C(C)(F)F)c1 (stereo not shown) [compound 384]
Study target: ACSS2 (Homo sapiens)
pIC50: 7.00 to 8.22

Problem: Given the entry CC1=NN(c2cccc(C(F)(F)F)c2)C(=O)C1C(=O)Nc1cccc(-c2ccco2)c1 (stereo not shown) [compound 165] , report its measured pIC50.
Solution: 8.22 to 11.00

Problem: Given the entry CCc1cccc(NC(=O)C2C(=O)N(c3ccc([N+](=O)[O-])cc3)N=C2C)c1 (stereo not shown) [compound 153] , report its measured pIC50.
Solution: 6.00 to 7.00

---

biological target: ACSS2 (Homo sapiens); experiment: biochemical
Reported IC50 values for a set of compounds

Answered cases to consult:
Compound: CC1=NN(c2ccc(OC(F)(F)F)cc2)C(=O)C1C(=O)Nc1csc(C(C)(F)F)c1 (stereo not shown)
IC50: 6 to 100 nM
--
Compound: COc1ccc(N2N=C(C)C(C(=O)Nc3cccc(-c4cnccn4)c3)C2=O)cn1 (stereo not shown)
IC50: 0.01 to 6 nM
--
Compound: CC1=NN(c2cccc(S(=O)(=O)N(C)C)c2)C(=O)C1C(=O)Nc1cccc(-c2cnccn2)c1 (stereo not shown)
IC50: 6 to 100 nM

Problem: Given the entry CC1=NN(c2ccc(Cc3ccccc3)c(-c3cccnc3)c2)C(=O)C1C(=O)Nc1cccc(C(C)(F)F)c1 (stereo not shown) , report its measured IC50.
Solution: 0.01 to 6 nM

Problem: Given the entry CC1=NN(c2ccccc2)C(=O)C1C(=O)Nc1cccc(C(=O)O)c1 (stereo not shown) , report its measured IC50.
Solution: 1000 to 100000 nM

Problem: Given the entry CC1=NN(c2cccc(C(=O)O)c2)C(=O)C1C(=O)Nc1cccc(C(C)(F)F)c1 (stereo not shown) , report its measured IC50.
Solution: 0.01 to 6 nM

Problem: Given the entry CC1=NN(c2cccc(C#CCNC(=O)COCCOCCOCCOCCOCC(=O)Nc3cccc4c3C(=O)N(C3CCC(=O)NC3=O)C4=O)c2)C(=O)C1C(=O)Nc1cccc(C(C)(F)F)c1 (stereo not shown) , report its measured IC50.
Solution: 0.01 to 6 nM

---

Reported IC50 values for a set of compounds
molecular target: ACSS2 (Homo sapiens, UniProt Q9NR19); assay: cell-based
Sequence (Q9NR19 whole entry): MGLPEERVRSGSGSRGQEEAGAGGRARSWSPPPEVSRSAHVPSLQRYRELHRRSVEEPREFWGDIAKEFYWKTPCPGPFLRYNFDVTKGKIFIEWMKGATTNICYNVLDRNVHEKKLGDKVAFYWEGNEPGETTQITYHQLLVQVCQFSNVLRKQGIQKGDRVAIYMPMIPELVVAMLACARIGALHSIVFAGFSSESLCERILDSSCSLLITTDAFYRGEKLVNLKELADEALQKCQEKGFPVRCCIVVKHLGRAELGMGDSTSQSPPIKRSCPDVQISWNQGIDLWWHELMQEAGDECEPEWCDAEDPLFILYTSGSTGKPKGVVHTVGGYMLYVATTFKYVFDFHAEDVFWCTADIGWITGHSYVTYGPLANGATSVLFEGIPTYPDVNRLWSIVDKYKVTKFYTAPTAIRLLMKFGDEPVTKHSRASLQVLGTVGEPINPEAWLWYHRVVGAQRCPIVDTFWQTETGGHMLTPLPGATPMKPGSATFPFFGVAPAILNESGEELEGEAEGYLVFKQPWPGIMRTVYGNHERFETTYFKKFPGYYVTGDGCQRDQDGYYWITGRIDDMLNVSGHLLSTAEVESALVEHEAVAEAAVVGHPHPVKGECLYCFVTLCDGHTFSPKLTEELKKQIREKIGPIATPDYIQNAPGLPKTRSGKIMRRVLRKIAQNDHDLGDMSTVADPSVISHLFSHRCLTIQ

Answered cases to consult:
Compound: CC1=NN(c2ccccc2)C(=O)C1C(=O)Nc1cccc(C(C)(F)F)c1 (stereo not shown)
Study target: ACSS2 (Homo sapiens, UniProt Q9NR19)
Value type: IC50
Result: < 100 nM
//
Compound: CC1=NN(c2cccc(C(=O)O)c2)C(=O)C1C(=O)Nc1cccc(-c2ccco2)c1 (stereo not shown)
Study target: ACSS2 (Homo sapiens, UniProt Q9NR19)
Value type: IC50
Result: ≥ 1000 nM
//
Compound: CC1=NN(c2ccccc2)C(=O)C1C(=O)Nc1cccc(-c2ncco2)c1 (stereo not shown)
Study target: ACSS2 (Homo sapiens, UniProt Q9NR19)
Value type: IC50
Result: 100 to 1000 nM
//
Compound: CC1=NN(c2ccccc2)C(=O)C1C(=O)Nc1cccc(C(=O)N(C)C)c1 (stereo not shown)
Study target: ACSS2 (Homo sapiens, UniProt Q9NR19)
Value type: IC50
Result: < 100 nM

Problem: Given the entry CC1=NN(c2ccccc2)C(=O)C1C(=O)Nc1cccc(-c2ccco2)c1 (stereo not shown) , report its measured IC50.
Solution: < 100 nM

Problem: Given the entry CCc1cccc(NC(=O)C2C(=O)N(c3ccc(OC(C)C)cc3)N=C2C)c1 (stereo not shown) , report its measured IC50.
Solution: 100 to 1000 nM

Problem: Given the entry CC1=NN(c2ccccc2)C(=O)C1C(=O)Nc1cccc(-c2ncc[nH]2)c1 (stereo not shown) , report its measured IC50.
Solution: 100 to 1000 nM

Problem: Given the entry CCc1cccc(NC(=O)C2C(=O)N(c3ccc4c(c3)OCO4)N=C2C)c1 (stereo not shown) , report its measured IC50.
Solution: 100 to 1000 nM

Problem: Given the entry CC1=NN(c2cccc(C(=O)O)c2)C(=O)C1C(=O)Nc1cccc(-c2cnccn2)c1 (stereo not shown) , report its measured IC50.
Solution: ≥ 1000 nM

Problem: Given the entry CC1=NN(c2cccc(C(F)(F)F)c2)C(=O)C1C(=O)Nc1cccc(-c2ccco2)c1 (stereo not shown) , report its measured IC50.
Solution: < 100 nM

---

Reported IC50 values for a set of compounds
molecular target: ACSS2 (Homo sapiens, UniProt Q9NR19); experiment: biochemical

Answered cases to consult:
Compound: CC1=NN(c2ccc(C(F)(F)F)cc2)C(=O)C1C(=O)Nc1cccc(-c2cnccn2)c1 (centres unmarked)
IC50: 6 to 100 nM
//
Compound: CC1=NN(c2ccc3ccccc3c2)C(=O)C1C(=O)Nc1ccccc1 (centres unmarked)
IC50: 1000 to 100000 nM
//
Compound: CC1=NN(c2ccccc2)C(=O)C1C(=O)Nc1cccc(C(F)(F)F)c1 (centres unmarked)
IC50: 6 to 100 nM

Problem: Given the entry COc1ccc(N2N=C(C)C(C(=O)Nc3ccccc3)C2=O)cc1 (centres unmarked) , report its measured IC50.
Solution: 1000 to 100000 nM

Problem: Given the entry CC(O)(c1ccccc1)c1cccc(NC(=O)C2C=NN(c3ccc(OC(F)F)cc3)C2=O)c1 (centres unmarked) , report its measured IC50.
Solution: 6 to 100 nM

Problem: Given the entry CC1=NN(c2cccc(C#CCNC(=O)COCCOCC(=O)Nc3cccc4c3C(=O)N(C3CCC(=O)NC3=O)C4=O)c2)C(=O)C1C(=O)Nc1cccc(C(C)(F)F)c1 (centres unmarked) , report its measured IC50.
Solution: 0.01 to 6 nM

Problem: Given the entry CC1=NN(c2ccc(S(=O)(=O)N(C)C)cc2)C(=O)C1C(=O)Nc1cccc(-c2ncc[nH]2)c1 (centres unmarked) , report its measured IC50.
Solution: 100 to 1000 nM

Problem: Given the entry CCc1cccc(NC(=O)C2C(=O)N(c3ccccc3)N=C2C(F)(F)F)c1 (centres unmarked) , report its measured IC50.
Solution: 1000 to 100000 nM
